test: solubility of FK 506 in nonaqueous solvents; type: physicochemical; details: Solvent Ethanol; ambient temperature
OUTCOME_MEASURE: solubility

// query Please look up its solubility: C=CCC1C=C(C)CC(C)CC(OC)C2OC(O)(C(=O)C(=O)N3CCCCC3C(=O)OC(C(C)=CC3CCC(O)C(OC)C3)C(C)C(O)CC1=O)C(C)CC2OC (stereo not shown)
// result > 300 mg/mL

###

test: physchem; type: physicochemical; details: hco-60/hco-10 (4:1) 10 w/v%, solubility of FK506
OUTCOME_MEASURE: solubility (µg/mL)
Give bare numbers, in µg/mL.

// query Please look up its solubility: C=CCC1C=C(C)CC(C)CC(OC)C2OC(O)(C(=O)C(=O)N3CCCCC3C(=O)OC(C(C)=CC3CCC(O)C(OC)C3)C(C)C(O)CC1=O)C(C)CC2OC (stereo not shown) [FK 506]
// result 560

###

test: physchem; assay type: physicochemical; settings: hco-60 20 w/v% aqueous, solubility of FK506
OUTCOME_MEASURE: solubility (µg/mL)
One number for each entry, in µg/mL.

// query Please look up its solubility: C=CCC1C=C(C)CC(C)CC(OC)C2OC(O)(C(=O)C(=O)N3CCCCC3C(=O)OC(C(C)=CC3CCC(O)C(OC)C3)C(C)C(O)CC1=O)C(C)CC2OC (stereo not shown) [FK 506]
// result 1150

###

assay: physchem; assay type: physicochemical; conditions: hco-60 0.3 w/v% aqueous, solubility of FK506
OUTCOME_MEASURE: solubility (µg/mL)
Numbers only, in µg/mL.

// query Please look up its solubility: C=CCC1C=C(C)CC(C)CC(OC)C2OC(O)(C(=O)C(=O)N3CCCCC3C(=O)OC(C(C)=CC3CCC(O)C(OC)C3)C(C)C(O)CC1=O)C(C)CC2OC (stereo not shown)
// result 19

###

assay: physchem; assay type: physicochemical; conditions: hco-60 0.1 w/v% aqueous, solubility of FK506
OUTCOME_MEASURE: solubility
Remember to put the unit after the number in your answer.

// query Please look up its solubility: C=CCC1C=C(C)CC(C)CC(OC)C2OC(O)(C(=O)C(=O)N3CCCCC3C(=O)OC(C(C)=CC3CCC(O)C(OC)C3)C(C)C(O)CC1=O)C(C)CC2OC (stereo not shown)
// result 5 µg/mL

###

experiment: physchem; type: physicochemical; settings: water, solubility of FK 506 in water
OUTCOME_MEASURE: solubility

// query Please look up its solubility: C=CCC1C=C(C)CC(C)CC(OC)C2OC(O)(C(=O)C(=O)N3CCCCC3C(=O)OC(C(C)=CC3CCC(O)C(OC)C3)C(C)C(O)CC1=O)C(C)CC2OC (stereo not shown)
// result ≤ 3 µg/mL

###

assay: physchem; format: physicochemical; conditions: hco-60/hco-10 (4:1) 20 w/v%, solubility of FK506
OUTCOME_MEASURE: solubility (µg/mL)
One number for each entry, in µg/mL.

// query Please look up its solubility: C=CCC1C=C(C)CC(C)CC(OC)C2OC(O)(C(=O)C(=O)N3CCCCC3C(=O)OC(C(C)=CC3CCC(O)C(OC)C3)C(C)C(O)CC1=O)C(C)CC2OC (stereo not shown)
// result 1130

###

assay: physchem; type: physicochemical; details: hco-60 0.5 w/v% aqueous, solubility of FK506
OUTCOME_MEASURE: solubility (µg/mL)
Give bare numbers, in µg/mL.

// query Please look up its solubility: C=CCC1C=C(C)CC(C)CC(OC)C2OC(O)(C(=O)C(=O)N3CCCCC3C(=O)OC(C(C)=CC3CCC(O)C(OC)C3)C(C)C(O)CC1=O)C(C)CC2OC (stereo not shown)
// result 35

Cited source for all entries: patent EP0444659B1
